- targetOrTestSystem: Non-receptor tyrosine-protein kinase TNK1 (Homo sapiens) (UniProt Q13470);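 also: reported values are mean inhibition figures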
- Sequence (Q13470 whole entry): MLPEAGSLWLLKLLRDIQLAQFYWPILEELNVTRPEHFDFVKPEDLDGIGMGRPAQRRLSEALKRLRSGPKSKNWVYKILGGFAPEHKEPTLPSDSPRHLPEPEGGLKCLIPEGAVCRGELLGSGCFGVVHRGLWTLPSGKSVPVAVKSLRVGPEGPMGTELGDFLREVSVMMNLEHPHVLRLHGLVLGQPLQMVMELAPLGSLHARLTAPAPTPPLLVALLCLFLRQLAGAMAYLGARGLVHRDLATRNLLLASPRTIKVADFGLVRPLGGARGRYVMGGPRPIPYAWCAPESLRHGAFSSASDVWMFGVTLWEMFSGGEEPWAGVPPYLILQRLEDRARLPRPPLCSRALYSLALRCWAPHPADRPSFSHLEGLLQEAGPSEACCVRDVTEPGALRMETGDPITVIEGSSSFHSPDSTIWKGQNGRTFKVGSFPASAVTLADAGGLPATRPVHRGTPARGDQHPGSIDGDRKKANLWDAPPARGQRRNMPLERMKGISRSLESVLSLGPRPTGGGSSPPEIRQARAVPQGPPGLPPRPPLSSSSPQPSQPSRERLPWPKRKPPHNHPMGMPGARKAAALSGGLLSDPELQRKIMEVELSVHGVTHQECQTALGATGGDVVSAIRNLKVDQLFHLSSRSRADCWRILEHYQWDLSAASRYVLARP
- conditions: at 0.1 µM
valueKind: inhibition
Output should be the measured figure followed by the unit it is expressed in.

Take a look at these entries with their results.
compoundString	inhibition
NS(=O)(=O)c1ccc(N/N=C2\C(=O)Nc3ccc(C(=O)NCc4ccncc4)cc32)cc1	3.58%
COc1ccc(-c2nn3ncccc3c2-c2ccnc(Nc3ccc(F)c(F)c3)n2)cc1	4.48%
COc1ccccc1-c1cc(/C=C2\C(=O)Nc3ncc(Br)cc32)cc(Br)c1O	40.2%
CS(=O)(=O)Nc1ccc(-c2cc(-c3ccccc3)cc(C(N)=O)c2N)cc1	1.13%
N#Cc1ccc2c(-c3ccnc(NC4CC4)n3)c(-c3ccc(F)cc3)nn2c1	-0.18%

Sure, the documented inhibition for O=C(O[C@H]1CN[C@H](C#Cc2cc3ncnc(Nc4ccc5c(cnn5Cc5ccccc5)c4)c3s2)C1)N1CCOCC1 is 0.45%

Sure, the documented inhibition for NS(=O)(=O)c1ccc(N/N=C2\C(=O)Nc3cccc(CCc4ccncc4)c32)cc1 is 12.8%

Sure, the documented inhibition for OCCCNc1nccc(-c2c(-c3ccc(F)cc3)nn3cc(C(F)(F)F)ccc23)n1 is 0.14%

Sure, the documented inhibition for COC(=O)Nc1nc2ccc(Oc3ccc(NC(=O)Nc4cc(C(F)(F)F)ccc4F)cc3)cc2s1 is 11.5%

Ref: ChEMBL document CHEMBL1961873
